# method.description: qHTS assay to identify small molecule agonists of the estrogen related receptor signaling pathway with the pleiotropic PPARgamma coactivator (PGC) from Tox21 10K library (AID 1224842); note: nearly all actives have a fitted effect of over 15% in size
# details: PGC/ERR reporter cell line, luciferase ONE-Glo, 18 h; series mostly up to 92.4 µM
Records with an inconclusive call do not appear. Active and inactive are the calls of the source. Calls come from the whole dose curve; as a rule, active = well fitted activation curve with a large enough effect in the repeat runs; inconclusive = weak or mixed curves, or effect the other way; inactive = no such curve, though single readings can be large or run the other way.
reported.property: outcome

Illustrative cases are given below, each with its answer.
O=C(OCC1CO1)C1CCCCC1C(=O)OCC1CO1 (stereo not given) | inactive
N#CSc1ccc(N)c([N+](=O)[O-])c1 | inactive
CCCC(=O)OC[C@@H](OC(=O)CCC)[C@@H](OC(=O)CCC)[C@H](Cn1c2nc(=O)[nH]c(=O)c-2nc2cc(C)c(C)cc21)OC(=O)CCC | inactive
Cc1ccc2oc(CN(Cc3ccccc3)C(=O)Nc3c(F)cc(F)cc3F)c(-c3ccc(Cl)cc3)c2c1 | inactive
CCCCC(CC)CN=C(N)NC(N)=NCCCCCCN=C(N)NC(N)=NCC(CC)CCCC (stereo not given) | inactive

GET /value?item= O=c1[nH]sc2ccccc12 &field=outcome returns inactive

// outcome lookup, compound = CCN(CCC#N)c1ccc(N=Nc2c(Cl)cc([N+](=O)[O-])cc2Cl)cc1 , result: inactive

# compound C[C@H]1[C@H]2CC[C@H]3[C@@H]4CC=C5C[C@@H](N(C)C)CC[C@]5(C)[C@H]4CC[C@]23CN1C ; its outcome = inactive

outcome in this record for O=c1c(-c2ccccc2)c1-c1ccccc1 : inactive

Consider C=C(C)C(=O)OCC(O)COc1ccc(C(C)(C)c2ccc(OCC(O)COC(=O)C(=C)C)cc2)cc1 (stereo not given) . Its measured outcome is inactive

Data credit: PubChem BioAssay (Tox21)
